Reference source: the supplement of paper PMC10981050

Test system: MOLM14;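 also: after 48 h exposure read by CellTiter-Glo luminescence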
Assay: cell viability relative to vehicle control; higher = less cytotoxic
Settings: 10 µM; SRSF2 genotype: SRSF2 wt/wt

{"compound": "O=C(O)CC[C@H]1CC[C@@](c2cc(F)ccc2F)(S(=O)(=O)c2ccc(Cl)cc2)CC1", "system": "MOLM14", "cell viability / %": 99.2}
{"compound": "NC(N)=N/N=C/c1c(Cl)cccc1Cl [Guanabenz (WY-8678) Acetate]", "system": "MOLM14", "cell viability / %": 86.5}
{"compound": "CCCN[C@H]1CCc2nc(N)sc2C1 [Pramipexole (Mirapex)]", "system": "MOLM14", "cell viability / %": 84.3}
{"compound": "O=c1c(-c2ccc(O)cc2)coc2c([C@@H]3O[C@H](CO)[C@@H](O)[C@H](O)[C@H]3O)c(O)ccc12 [Puerarin (Kakonein)]", "system": "MOLM14", "cell viability / %": 102}
{"compound": "CCn1c(=O)c(-c2cc[nH]n2)cc2c(C)nc(N)nc21", "system": "MOLM14", "cell viability / %": 26.4}
{"compound": "C[C@@H](O)[C@H]1C(=O)N2C(C(=O)OCOC(=O)C(C)(C)C)=C(SC3CN(C4=NCCS4)C3)[C@H](C)[C@H]12 [Tebipenem pivoxil (L-084)]", "system": "MOLM14", "cell viability / %": 95.2}
{"compound": "CCC(=O)O[C@@H]1CC(=O)O[C@H](C)C/C=C/C=C/[C@H](O)[C@H](C)C[C@H](CC=O)[C@H](O[C@@H]2O[C@H](C)[C@@H](O[C@H]3C[C@@](C)(O)[C@@H](OC(=O)CC)[C@H](C)O3)[C@H](N(C)C)[C@H]2O)[C@H]1OC [Midecamycin]", "system": "MOLM14", "cell viability / %": 93.7}
{"compound": "Nc1cccc2c1C(=O)N(C1CCC(=O)NC1=O)C2=O (configuration not stated) [Pomalidomide]", "system": "MOLM14", "cell viability / %": 93.5}
{"compound": "C=C(C)C1CCC2(C)CCC(=O)C(C)=C2C1 (configuration not stated)", "system": "MOLM14", "cell viability / %": 110}
{"compound": "CN(C)CCSSCCNC(=O)C1CCN(C(=O)CSc2ccc(Cl)cc2)CC1", "system": "MOLM14", "cell viability / %": 95.1}
{"compound": "O=C(CCCCCCC(=O)N/N=C/c1ccc(N(c2ccccc2)c2ccccc2)cc1)NO", "system": "MOLM14", "cell viability / %": 1.31}
{"compound": "O=c1c(O)c(-c2ccc(O)c(O)c2)oc2cc(O)cc(O)c12 [Quercetin (Sophoretin)]", "system": "MOLM14", "cell viability / %": 97.5}
{"compound": "CC(=O)[C@@]1(O)CC[C@H]2[C@@H]3C[C@H](C)C4=CC(=O)CC[C@]4(C)[C@H]3CC[C@@]21C [Medroxyprogesterone]", "system": "MOLM14", "cell viability / %": 100}
{"compound": "OCC(O)C(O)CO (configuration not stated) [Erythritol]", "system": "MOLM14", "cell viability / %": 101}
{"compound": "N#Cc1c(N)nc(NC2CC2)nc1N [Dicyclanil]", "system": "MOLM14", "cell viability / %": 102}
{"compound": "C[n+]1ccccc1C=NO [Pralidoxime Iodide]", "system": "MOLM14", "cell viability / %": 106}
{"compound": "Cc1cnc(Nc2ccc(F)cc2Cl)nc1-c1c[nH]c(C(=O)NC(CO)c2cccc(Cl)c2)c1 (configuration not stated)", "system": "MOLM14", "cell viability / %": 48.1}
